In this section we review reported Activity values for a set of compounds.
- TESTED_SYSTEM: Vitamin D3 receptor (Homo sapiens) (UniProt P11473)
- Sequence (whole entry): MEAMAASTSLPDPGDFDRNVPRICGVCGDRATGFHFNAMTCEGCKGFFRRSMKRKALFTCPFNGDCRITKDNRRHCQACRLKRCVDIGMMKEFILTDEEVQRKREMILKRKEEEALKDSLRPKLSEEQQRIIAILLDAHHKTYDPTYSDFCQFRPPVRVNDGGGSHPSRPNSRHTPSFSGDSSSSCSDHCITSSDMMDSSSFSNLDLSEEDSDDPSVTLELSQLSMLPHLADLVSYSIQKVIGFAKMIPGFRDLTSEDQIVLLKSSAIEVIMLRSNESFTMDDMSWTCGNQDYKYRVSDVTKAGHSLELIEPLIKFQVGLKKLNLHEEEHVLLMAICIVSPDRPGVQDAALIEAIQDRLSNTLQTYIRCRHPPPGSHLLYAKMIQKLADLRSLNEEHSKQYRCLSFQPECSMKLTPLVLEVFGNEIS
- MEASUREMENT_DESCRIPTION: Binding affinity to VDR (unknown origin) after 30 mins by ultrafiltration LC-MS/MS analysis relative to 6-(6-aminohexyl)-5H-indeno[1,2-c]isoquinoline-5,11(6H)-dione
- Parameters: concentration or dose not given beside the values

| SMILES_CODE | Activity, % |
| --- | --- |
| NCCCCCn1c2c(c3ccccc3c1=O)C(=O)c1ccccc1-2 | 83.8 |
| CN(C)CCCn1c2c(c3ccc(N)cc3c1=O)C(=O)c1ccccc1-2 | 21.4 |
| NCCCn1c2c(c3ccc(N)cc3c1=O)Cc1ccccc1-2 | 15.1 |
| NCCCn1c2c(c3ccccc3c1=O)C(=O)c1ccccc1-2 | 42.7 |
| CCOC(=O)CNc1ccc2c3c(n(CCCN)c(=O)c2c1)-c1ccccc1C3=O | 1.62 |
| NCCCCCCn1c2c(c3ccccc3c1=O)C(=O)c1ccccc1-2 | 100 |
| NCCCCn1c2c(c3ccccc3c1=O)C(=O)c1ccccc1-2 | 35.3 |

###

Here, each record is paired with measured Ratio data.
- TESTED_SYSTEM: Retinoic acid receptor RXR-alpha (Homo sapiens)
- Sequence (whole entry): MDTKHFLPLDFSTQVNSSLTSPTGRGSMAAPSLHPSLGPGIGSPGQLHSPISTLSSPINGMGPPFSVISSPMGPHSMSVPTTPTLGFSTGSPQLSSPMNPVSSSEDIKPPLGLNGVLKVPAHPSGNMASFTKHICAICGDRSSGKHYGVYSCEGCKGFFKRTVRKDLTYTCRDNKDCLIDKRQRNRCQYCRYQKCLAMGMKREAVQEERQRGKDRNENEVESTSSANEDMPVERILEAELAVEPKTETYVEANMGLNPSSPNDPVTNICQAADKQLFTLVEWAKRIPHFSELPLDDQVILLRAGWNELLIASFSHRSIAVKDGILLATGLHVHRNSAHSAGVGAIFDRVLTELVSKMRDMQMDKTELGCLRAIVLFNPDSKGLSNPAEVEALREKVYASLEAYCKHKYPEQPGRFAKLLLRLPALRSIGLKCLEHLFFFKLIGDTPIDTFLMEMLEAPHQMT
- MEASUREMENT_DESCRIPTION: Activation of human RXRalpha activity expressed in COS1 cells assessed as induction ratio at 50 uM after 12 hrs by RXRE-luciferase reporter gene assay relative to untreated control
- Assay type: cell-based
- TEST_CONDITIONS: COS-1

| COMPOUND | Ratio |
| --- | --- |
| COC(=O)CCCc1ccc2c3c(n(C)c(=O)c2c1)-c1ccccc1C3=O | < 1 |
| CN(C)CCCn1c2c(c3ccc([N+](=O)[O-])cc3c1=O)C(=O)c1ccccc1-2 | < 1 |
| NC(=O)CCn1c2c(c3ccccc3c1=O)C(=O)c1ccccc1-2 | < 1 |
| COc1cc2c3c(n(CCCN)c(=O)c2cc1OC)-c1ccc(F)cc1C3=O | < 1 |
| Cn1c2c(c3ccc(C=O)cc3c1=O)C(=O)c1ccccc1-2 | < 1 |
| CC(=O)Nc1ccc2c3c(n(CCCCl)c(=O)c2c1)-c1ccccc1C3=O | < 1 |
| Cn1c2c(c3ccc(C#N)cc3c1=O)C(=O)c1ccccc1-2 | < 1 |
| Cn1c2c(c3ccc(NCC(=O)O)cc3c1=O)C(=O)c1ccccc1-2 | < 1 |
| COc1ccc2c(c1)C(=O)c1c-2n(CCCN)c(=O)c2cc(OC)c(OC)cc12 | < 1 |
| CNCCCn1c2c(c3ccccc3c1=O)C(=O)c1ccccc1-2 | > 1 |
| COC(=O)/C=C/c1ccc2c3c(n(CCCN)c(=O)c2c1)-c1ccccc1C3=O | < 1 |
| COC(=O)CC(=O)Nc1ccc2c3c(n(CCCN)c(=O)c2c1)-c1ccccc1C3=O | > 1 |
| CN(C)CCCn1c2c(c3ccccc3c1=O)C(=O)c1ccccc1-2 | > 1 |
| CCOC(CCn1c2c(c3ccc([N+](=O)[O-])cc3c1=O)C(=O)c1ccccc1-2)OCC | < 1 |
| Cn1c2c(c3ccc([N+](=O)[O-])cc3c1=O)C(=O)c1ccccc1-2 | < 1 |
| COC(=O)CC(=O)Nc1ccc2c3c(n(C)c(=O)c2c1)-c1ccccc1C3=O | < 1 |
| NCCCn1c2c(c3ccccc3c1=O)C(=O)c1ccccc1-2 | 11.4 |
| COC(=O)CCCC(=O)Nc1ccc2c3c(n(C)c(=O)c2c1)-c1ccccc1C3=O | < 1 |
| Cn1c2c(c3ccc(CC(=O)O)cc3c1=O)C(=O)c1ccccc1-2 | < 1 |
| COC(=O)Cc1ccc2c3c(n(C)c(=O)c2c1)-c1ccccc1C3=O | < 1 |
| CNc1ccc2c3c(n(CCCN)c(=O)c2c1)-c1ccccc1C3O (configuration not stated) | < 1 |
| Cn1c2c(c3ccc(C(N)=O)cc3c1=O)C(=O)c1ccccc1-2 | < 1 |

Where do these numbers come from? They come from ChEMBL document CHEMBL2321659.
